- measured.on: V600E full-length B-Raf (Homo sapiens, UniProt P15056, V600E)
- Construct: 1 μM FSBA-MEK and 20 nM V600E full-length B-Raf; made in house; host or cells: Sf9 insect cells (baculovirus)
- Sequence (P15056 whole entry V600E): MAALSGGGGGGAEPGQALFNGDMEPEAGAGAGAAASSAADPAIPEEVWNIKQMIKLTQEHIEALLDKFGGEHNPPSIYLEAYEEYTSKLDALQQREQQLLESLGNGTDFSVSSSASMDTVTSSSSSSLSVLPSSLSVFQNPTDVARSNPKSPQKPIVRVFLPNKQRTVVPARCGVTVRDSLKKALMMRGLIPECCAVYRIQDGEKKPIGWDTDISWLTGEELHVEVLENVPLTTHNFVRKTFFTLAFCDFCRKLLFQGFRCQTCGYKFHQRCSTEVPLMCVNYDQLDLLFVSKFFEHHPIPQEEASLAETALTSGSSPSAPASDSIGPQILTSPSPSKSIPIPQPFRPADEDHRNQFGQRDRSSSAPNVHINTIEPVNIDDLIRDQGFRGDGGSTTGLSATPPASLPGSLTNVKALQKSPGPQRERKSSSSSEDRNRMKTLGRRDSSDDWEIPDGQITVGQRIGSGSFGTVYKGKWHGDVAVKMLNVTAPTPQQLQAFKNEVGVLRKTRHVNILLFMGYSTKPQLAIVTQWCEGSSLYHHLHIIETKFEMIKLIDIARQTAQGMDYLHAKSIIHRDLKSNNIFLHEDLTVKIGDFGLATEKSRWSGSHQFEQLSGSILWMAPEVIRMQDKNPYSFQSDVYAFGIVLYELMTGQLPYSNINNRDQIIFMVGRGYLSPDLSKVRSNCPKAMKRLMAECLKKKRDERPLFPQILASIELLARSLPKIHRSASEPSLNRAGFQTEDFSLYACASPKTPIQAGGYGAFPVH
- run.description: B-Raf IC50 assay (Example A)
- Type: biochemical
- measurement.setup: [γ-33P]ATP incorporation into FSBA-MEK, 4 μM ATP; read-out: BRAF V600E IC50
- Text: Determining the activity of Raf in the sample is possible by a number of direct and indirect detection methods (US 2004/0082014). Activity of human recombinant B-Raf protein may be assessed in vitro by assay of the incorporation of radio labeled phosphate to recombinant MAP kinase (MEK), a known physiologic substrate of B-Raf, according to US 2004/0127496 and WO 03/022840. […]
pIC50: −log10 of the molar value.
A collection of compounds and their measured pIC50

mol	sign	pIC50
C#Cc1c(NS(=O)(=O)CCC)ccc(Cl)c1NC(=O)c1cccc2c(N)ncnc12	=	9.40
O=C(Nc1c(F)ccc(NS(=O)(=O)CC2CC2)c1F)c1cccc2cncnc12	=	6.69
CN(C)S(=O)(=O)Nc1ccc(F)c(NC(=O)c2cccc3c(N)ncnc23)c1F	=	7.83
CCCS(=O)(=O)Nc1cccc(NC(=O)c2cccc3c(N)ncnc23)c1Cl	=	8.32
CN(C)S(=O)(=O)Nc1ccc(Cl)c(NC(=O)c2cccc3c(N)ncnc23)c1F	=	8.15
CCCS(=O)(=O)Nc1cc(F)c(F)c(NC(=O)c2cccc3c(NCC)ncnc23)c1F	=	6.13
CCCS(=O)(=O)Nc1ccc(F)c(NC(=O)c2cc(C)cc3c(NC4CCCC4)ncnc23)c1F	<	6.00
Nc1ncnc2c(C(=O)Nc3c(F)ccc(NS(=O)(=O)c4ccccc4)c3F)cccc12	=	9.42

----------
- measured.on: V600E full-length B-Raf (Homo sapiens, UniProt P15056, V600E)
- Construct: 1 μM FSBA-MEK and 20 nM V600E full-length B-Raf; made in house; host or cells: Sf9 insect cells (baculovirus)
- run.description: B-Raf IC50 assay (Example A)
- Format: biochemical
- measurement.setup: BRAF V600E IC50 (μM), [γ-33P]ATP incorporation into FSBA-MEK, 4 μM ATP

mol	measured.on	IC50, µM
CCCS(=O)(=O)Nc1ccc(F)c(NC(=O)c2cccc3c(N)ncnc23)c1F	V600E full-length B-Raf (Homo sapiens, UniProt P15056, V600E)	0.00177
CCCS(=O)(=O)Nc1ccc(Cl)c(NC(=O)c2cccc3c(N)ncnc23)c1F	V600E full-length B-Raf (Homo sapiens, UniProt P15056, V600E)	0.00058
CCCS(=O)(=O)Nc1ccc(F)c(NC(=O)c2cccc3c(N)ncnc23)c1Cl	V600E full-length B-Raf (Homo sapiens, UniProt P15056, V600E)	0.00053

----------
A collection of compounds and their measured pIC50
- measured.on: V600E full-length B-Raf (Homo sapiens, UniProt P15056, V600E)
- Construct: 1 μM FSBA-MEK and 20 nM V600E full-length B-Raf; made in house; host or cells: Sf9 insect cells (baculovirus)
- run.description: B-Raf IC50 assay (Example A)
- Type: biochemical
- measurement.setup: B-Raf V600E assay of Example A; read-out: IC50
pIC50: −log10 of the molar value.

mol	measured.on	pIC50
O=C(Nc1c(F)c(F)cc(NS(=O)(=O)CCCF)c1F)c1cccc2c(NC3CC3)ncnc12	V600E full-length B-Raf (Homo sapiens, UniProt P15056, V600E)	> 6.00
Nc1ncnc2c(C(=O)Nc3c(F)ccc(NS(=O)(=O)CCCF)c3Cl)cccc12	V600E full-length B-Raf (Homo sapiens, UniProt P15056, V600E)	> 7.00
CCCS(=O)(=O)Nc1ccc(F)c(NC(=O)c2cccc3c(N)ncnc23)c1C#N	V600E full-length B-Raf (Homo sapiens, UniProt P15056, V600E)	> 7.00
CCCS(=O)(=O)Nc1ccc(F)c(NC(=O)c2cc(C)cc3c(N)ncnc23)c1F	V600E full-length B-Raf (Homo sapiens, UniProt P15056, V600E)	> 7.00
CCCS(=O)(=O)Nc1cc(F)c(F)c(NC(=O)c2cccc3c(NN4CCOCC4)ncnc23)c1F	V600E full-length B-Raf (Homo sapiens, UniProt P15056, V600E)	> 6.00
Cc1ncnc2c(C(=O)Nc3c(F)ccc(NS(=O)(=O)CCCF)c3F)cccc12	V600E full-length B-Raf (Homo sapiens, UniProt P15056, V600E)	> 7.00
O=C(Nc1c(Cl)ccc(NS(=O)(=O)CCCF)c1F)c1cccc2cncnc12	V600E full-length B-Raf (Homo sapiens, UniProt P15056, V600E)	> 7.00
CCCS(=O)(=O)Nc1ccc(F)c(NC(=O)c2cccc3c(N)ncnc23)c1Cl	V600E full-length B-Raf (Homo sapiens, UniProt P15056, V600E)	> 7.00
O=C(Nc1c(Cl)ccc(NS(=O)(=O)CCCF)c1Cl)c1cccc2cncnc12	V600E full-length B-Raf (Homo sapiens, UniProt P15056, V600E)	> 7.00
CCCS(=O)(=O)Nc1cc(F)c(F)c(NC(=O)c2cccc3c(NC4CC4)ncnc23)c1F	V600E full-length B-Raf (Homo sapiens, UniProt P15056, V600E)	> 6.00
CCCS(=O)(=O)Nc1ccc(F)c(NC(=O)c2cc(C)cc3cncnc23)c1F	V600E full-length B-Raf (Homo sapiens, UniProt P15056, V600E)	> 7.00
CCCS(=O)(=O)Nc1ccc(F)c(NC(=O)c2cc(C#CCO)cc3c(N)ncnc23)c1F	V600E full-length B-Raf (Homo sapiens, UniProt P15056, V600E)	> 7.00
Nc1ncnc2c(C(=O)Nc3c(F)ccc(NS(=O)(=O)N4CCCC4)c3F)cccc12	V600E full-length B-Raf (Homo sapiens, UniProt P15056, V600E)	> 7.00
CCNc1ncnc2c(C(=O)Nc3c(F)c(F)cc(NS(=O)(=O)CCCF)c3F)cccc12	V600E full-length B-Raf (Homo sapiens, UniProt P15056, V600E)	> 6.00
CC(C)CS(=O)(=O)Nc1ccc(F)c(NC(=O)c2cccc3c(N)ncnc23)c1Cl	V600E full-length B-Raf (Homo sapiens, UniProt P15056, V600E)	> 7.00
CCCS(=O)(=O)Nc1cc(F)c(F)c(NC(=O)c2cccc3c(NCCF)ncnc23)c1F	V600E full-length B-Raf (Homo sapiens, UniProt P15056, V600E)	> 6.00
CCCS(=O)(=O)Nc1ccc(F)c(NC(=O)c2cc(C)cc3c(NC4CC4)ncnc23)c1F	V600E full-length B-Raf (Homo sapiens, UniProt P15056, V600E)	> 6.00
CCCS(=O)(=O)Nc1ccc(Cl)c(NC(=O)c2ccnc3c(N)ncnc23)c1F	V600E full-length B-Raf (Homo sapiens, UniProt P15056, V600E)	> 7.00
CCCS(=O)(=O)Nc1ccc(F)c(NC(=O)c2cncc3c(N)ncnc23)c1F	V600E full-length B-Raf (Homo sapiens, UniProt P15056, V600E)	> 7.00
CCCS(=O)(=O)Nc1cc(Cl)cc(NC(=O)c2cccc3c(N)ncnc23)c1F	V600E full-length B-Raf (Homo sapiens, UniProt P15056, V600E)	> 7.00
O=C(Nc1c(F)ccc(NS(=O)(=O)CC2CC2)c1F)c1cccc2c(NC3CC3)ncnc12	V600E full-length B-Raf (Homo sapiens, UniProt P15056, V600E)	> 6.00
CCCS(=O)(=O)Nc1ccc(F)c(NC(=O)c2cccc3c(N)ncnc23)c1F	V600E full-length B-Raf (Homo sapiens, UniProt P15056, V600E)	> 7.00
